- TESTED TARGET: T1, human CRTh2 (human, UniProt Q9Y5Y4 1-395)
- T1 construct: also native CRTh2 on primary human basophils, eosinophils and Th2 cells; also called hCRTh2; chemoattractant receptor-homologous molecule expressed on T helper 2 cells
- T1 sequence: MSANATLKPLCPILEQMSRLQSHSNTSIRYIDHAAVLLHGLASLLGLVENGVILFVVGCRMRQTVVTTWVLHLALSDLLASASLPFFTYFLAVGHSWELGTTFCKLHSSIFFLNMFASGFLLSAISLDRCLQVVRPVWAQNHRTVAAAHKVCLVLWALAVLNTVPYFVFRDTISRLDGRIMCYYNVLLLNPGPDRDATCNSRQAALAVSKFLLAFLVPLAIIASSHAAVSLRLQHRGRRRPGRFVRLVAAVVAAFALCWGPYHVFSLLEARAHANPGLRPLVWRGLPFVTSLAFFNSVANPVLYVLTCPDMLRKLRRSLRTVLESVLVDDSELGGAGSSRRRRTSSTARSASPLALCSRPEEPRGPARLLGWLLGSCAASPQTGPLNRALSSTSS
- ASSAY OVERVIEW: radioligand cell binding assay (Scatchard), Fab, 293 cells expressing human CRTh2
METRIC: pKd
Worth noting: pKd values are minus log10 of concentrations stated in mol/L.

Qu. Quick check: pKd of h19A2.v52 Fab fragment (Fab, V domains shown, Fab fragment of the humanized IgG; also called h19A2.v52 (Fab fragment of IgG); h19A2.52) VH: EVQLVESGGGLVQPGGSLRLSCAASGFTFSSYLMSWVRQAPGKGLEWVARISNGGSTTDYPGTVEGRFTISRDNSKNTLYLQMNSLRAEDTAVYYCARHRTNWDFDYWGQGTLVTVSS VL: DIQMTQSPSSLSASVGDRVTITCRASENIYYNLAWYQQKPGKAPKLVVYAATQLADGVPSRFSGSGSGTDYTLTISSLQPEDFATYYCQHFWITPWTFGQGTKVEIK ?
Ans. 7.86
